Tested on: SNB-75 CNS
EXPERIMENT DESCRIPTION: NCI tumour cell line growth inhibition, 48 h
ATTRIBUTE MEASURED: GI50

O=C(Nc1ccccc1O)c1ccc(Oc2cccc(C(=O)Nc3ccccc3O)c2)cc1 = 1.67 µM
N#CC1=C(N)NC(=O)NC12Nc1ccccc1S2 (stereo not given) = 51 µM
CCOC(=O)/C=C/C(C(=O)/C=C/c1ccc(O)c(OC)c1)=C(O)\C=C\c1ccc(O)c(OC)c1 = 11.2 µM

Lab note: measured GI50 of Cc1cc(Cc2cc(C)cc(C(C)(C)C)c2O)c(O)c(C(C)(C)C)c1 was 11.9 µM

Entry CCN1c2ccccc2C(Cl)(c2ccc(N(C)C)cc2)c2ccccc21 ; GI50 = 5.16 µM

Lab book: GI50 of O=C(N/N=C/c1ccc([N+](=O)[O-])cc1)c1ccc2nc(-c3ccc(Cl)cc3)[nH]c2c1 noted as 2.78 µM

Lookup result for O=C(c1ccco1)c1c(C(F)(F)F)n([O-])c2ccccc2[n+]1=O ; measured GI50: 8.36 µM

So, COc1ccccc1C#Cc1ccccc1C#CCCCCCC#Cc1ccccc1C#Cc1ccccc1OC ? Its GI50 was 1.81 µM

Entry O=c1cc(-c2ccccc2)[nH]n1-c1nc2ccccc2[nH]1 , GI50 reported as 4.66 µM

Note to self: GI50 recorded for C=CC(=O)N[C@H]1CCOC[C@H]1Nc1ncc2cc(-c3c(Cl)c(OC)cc(OC)c3Cl)ccc2n1 was 12 µM

---

Tested on: U251 CNS
EXPERIMENT DESCRIPTION: NCI tumour cell line growth inhibition, 48 h
Some compounds, each annotated with its measured TGI.
Kindly provide the numeric value in µM only, without the unit symbol.

O=C(c1ccco1)c1c(C(F)(F)F)n([O-])c2ccccc2[n+]1=O = 18.2
COc1ccc2c(c1)C(=O)/C(=C/c1ncc([N+](=O)[O-])n1C)O2 = 2.84
O=C(N/N=C/c1ccc([N+](=O)[O-])cc1)c1ccc2nc(-c3ccc(Cl)cc3)[nH]c2c1 = 10.8

Entry under test: O=C(Nc1ccccc1O)c1ccc(Oc2cccc(C(=O)Nc3ccccc3O)c2)cc1 . Its TGI was 8.16

---

Tested on: DU-145 prostate
EXPERIMENT DESCRIPTION: NCI tumour cell line growth inhibition, 48 h
ATTRIBUTE MEASURED: TGI (µM)
All answers are understood in µM, so give the number only.

Noted TGI for N#CC1=C(N)NC(=O)NC12Nc1ccccc1S2 (centres undefined) , tested on DU-145 prostate: 35.3

---

System: RPMI-8226 leukemia
EXPERIMENT DESCRIPTION: NCI tumour cell line growth inhibition, 48 h; in the data active means GI50 below about 0.43 µM; inactive means the rest
Log the outcome using a class from active, inactive

Recorded results for 8 molecules are shown here.
Cc1cc(Cc2cc(C)cc(C(C)(C)C)c2O)c(O)c(C(C)(C)C)c1 = inactive
Cc1c2c[n+](C(C)C)ccc2c(C)c2c1[nH]c1ccccc12 = inactive
O=C(N/N=C/c1ccccc1O)C(=O)Nc1ccc(F)cc1 = inactive
Cn1cc(-c2cnc3ccc4ccc(CS(=O)(=O)NCc5ccccn5)cc4c(=O)c3c2)cn1 = inactive
O=C(Cc1cccc(OC(F)(F)F)c1)Nc1ccc(CCCCc2nnc(NC(=O)Cc3ccccn3)s2)nn1 = inactive
COc1ccc(-n2c3c(c4c(CN5CCOCC5)c(O)ccc42)CCc2ccccc2C3=O)cc1 = inactive
O=C(c1ccco1)c1c(C(F)(F)F)n([O-])c2ccccc2[n+]1=O = active
NS(=O)(=O)c1cccc(N=Cc2c(O)[nH]c3ccccc23)c1 = inactive

Record request — test call for C=C1C(=O)O[C@H]2[C@H]1CC/C(COC(=O)NCCc1c[nH]c3ccc(OC)cc13)=C\CC[C@@]1(C)O[C@@H]21 inactive

Per the assay record, what outcome was assigned to CO[C@@H]1/C=C(C)/C=C/[C@@H](C)/C=C(\C)C(=O)OC(/C(C)=C/C=C(\C)CNC(=O)[C@H](CO)NC=O)[C@@H](C)/C=C/C=C/[C@H](OC)CC/C=C(C)/C=C/C1 (stereo partly specified) ? active

Tell me the recorded outcome of this test for NC1=NC(c2ccc(Cl)cc2)C2=C(N1)/C(=C/c1ccc(Cl)cc1)CCC2 (stereo unspecified) . inactive

---

Quick reference for TGI among some molecules
Tested on: UO-31 renal
EXPERIMENT DESCRIPTION: NCI tumour cell line growth inhibition, 48 h
Dear colleague, please return just the value in µM, with no unit written.

Observe how each entry below is paired with its result.
Cc1cc(-c2nc3ccccc3s2)ccc1NC(=O)[C@H](C)N = 19.1
CCCCOP1(=O)C=C(C)C(=C(Cl)Cl)C(C)=C1 (stereo not given) = 45.3
C=C1C(=O)O[C@H]2[C@H]1CC/C(COC(=O)CSCC(=O)OC/C1=C/CC[C@@]3(C)O[C@H]3[C@H]3OC(=O)C(=C)[C@@H]3CC1)=C\CC[C@@]1(C)O[C@@H]21 = 2.83

Now examine the next entry.
Briefly, TGI measured for O=C(N/N=C/c1cc(Cl)cc(Cl)c1[O-])c1ccccc1O.O=C(N/N=C/c1cc(Cl)cc(Cl)c1[O-])c1ccccc1O.[Ni+2] : 10.1

---

Test system: MDA-MB-231 breast
EXPERIMENT DESCRIPTION: NCI tumour cell line growth inhibition, 48 h
# GI50 per entry

Examples with their reported GI50 follow.
CN1CCN(Cc2ccc(NC(=O)c3ccc(C#Cc4c(N)ncc5ccc(F)cc45)cc3)cc2C(F)(F)F)CC1 = 1.14 µM
COc1cc(/C=C2\CN(C)C/C(=C\c3cc(CN4CCCCC4)c(O)c(OC)c3)C2=O)cc(CN2CCCCC2)c1O = 3.18 µM
CCN1c2ccccc2C(Cl)(c2ccc(N(C)C)cc2)c2ccccc21 = 13.1 µM
Cc1ccc2c(O)c(O)cc(NC(C)CCCN)c2n1 (stereo not given) = 7.22 µM

Kindly consider the entry below.
Value of GI50 reported for the compound C=CC1CC12C(=O)C1OC2(C)C2C(=O)c3c(O)ccc(O)c3C(=O)C12 (stereo not given) is 2.33 µM

---

System: UACC-62 melanoma
EXPERIMENT DESCRIPTION: NCI tumour cell line growth inhibition, 48 h
ATTRIBUTE MEASURED: log10(TGI) (log10 of the value in µM)
Log10 applied to TGI; unit prior to transform: µM.

Below are worked cases with known answers.
COc1cccc(/C=C/c2cnc3ccccc3n2)c1OC = 1.96
CC(=O)O/N=C1/C(c2c(O)[nH]c3cc(Br)ccc23)=Nc2ccccc21 = 0.44
O=c1cc(-c2ccccc2)[nH]n1-c1nc2ccccc2[nH]1 = 1.14
C/C(=N\N=C(/[Se])N1CC2CCC(CC2)C1)c1ccccn1 = -0.15

Next up:
Value of measured log10(TGI) for the entry Cc1cc(=O)oc2cc(OCc3c(F)cccc3Cl)ccc12 : 1.54

---

System: SK-MEL-28 melanoma
EXPERIMENT DESCRIPTION: NCI tumour cell line growth inhibition, 48 h
ATTRIBUTE MEASURED: TGI

# annotated cases, reported TGI shown
Cc1ccc(-c2cc(C3=CC(=O)C=CC3=O)n(-c3ccc(S(N)(=O)=O)cc3)n2)cc1 = > 100 µM
COc1cc(/C=C2\N=C(c3ccccc3)N(c3nc4c(OC)ccc(OC)c4s3)C2=O)cc(OC)c1OC = > 100 µM
[N-]=[N+]=CC(=O)OCC1SCCCS1 = > 100 µM
O=C(O)c1ccc(N/C=C2\C(=O)c3ccccc3OC2O)cc1O (stereo unspecified) = 69.2 µg/mL
C=CCNC(=O)NC1=CSC2=NC(=O)C3(NN12)c1ccccc1-c1ccccc13 = > 10 µM

The recorded TGI for COC(=O)C1(F)C(=O)NC(=O)NC1O (stereo unspecified) is > 100 µM

---

Test system: HOP-92 NSCLC
EXPERIMENT DESCRIPTION: NCI tumour cell line growth inhibition, 48 h; in the data active = GI50 below about 0.43 µM; inactive = the rest
Outcome field: choose from Yes (active), No (inactive)

COc1ccc(-c2ccc(-c3ccc(-c4ccc(C(=N)N)cc4)s3)s2)cc1OC = No

Hi, do you know how COc1ccccc1/C=N\N=C(N/N=C/c1ccccc1OC)N/N=C/c1ccccc1OC came out in this test? No

Recorded test outcome, item O=C(O)c1ccc(N/C=C2\C(=O)c3ccccc3OC2O)cc1O (stereo unspecified) No

How did this test come out for C/C=C/CC(C)C(O)C1C(=O)NC(CC)C(=O)N(C)CC(=O)N(C)C(CC(C)C)C(=O)NC(C(C)C)C(=O)N(C)C(CC(C)C)C(=O)NC(C)C(=O)NC(C)C(=O)N(C)C(CC(C)C)C(=O)N(C)C(CC(C)C)C(=O)N(C)C(C(C)C)C(=O)N1C (stereo unspecified) ? No

Could you check what this test reported for O=C(c1ccco1)c1c(C(F)(F)F)n([O-])c2ccccc2[n+]1=O ? Yes

Could you kindly confirm the outcome this assay logged for CCN(CCCl)CCCNc1c2ccccc2nc2ccc(OC)cc12 ? No

Please share the test call associated with Cc1cc(C)c(O)c(CN(C)Cc2cc(Cl)cc(Cl)c2O)c1 . No

Give the logged outcome of this assay for the following compound: C=CCC(N[C@H](CO)c1ccccc1)c1cn(C(=O)OCC)c2ccccc12 (stereo partly specified) No

Hi team, can someone confirm the assay call for O=[Se](=O)c1ccccc1.O=[Se](=O)c1ccccc1.[Cu] ? No

# lookup: test call for COc1ccc(C(=O)c2cc3c(OC)c(OC)c(OC)cc3[nH]2)cc1 No

Status in this test for COc1ccc(-n2c3c(c4c(CN5CCOCC5)c(O)ccc42)CCc2ccccc2C3=O)cc1 ? No
